Reference for the values: ChEMBL document CHEMBL1145797

Test: Concentration to inhibit growth of v-src-transformed cells (SR-3Y1 cells) after 72 h exposure
Type: functional
Details: Rattus norvegicus, SR3Y1, 72 h
parameter: IC50

# count of solved cases: 2
chemical.smiles	IC50
C[C@@H]1C[C@H]2O[C@@H]2\C=C/C=C/C(=N\OCC(=O)N2CCCCCC2)Cc2c(Cl)c(O)cc(O)c2C(=O)O1	< 4.1 nM
C[C@@H]1C[C@H]2O[C@@H]2\C=C/C=C/C(=N\OCC(=O)N2CCC(C(N)=O)CC2)Cc2c(Cl)c(O)cc(O)c2C(=O)O1	> 3000 nM

// below: IC50 requested for another molecule
[Q] Which IC50 reading was recorded for the molecule `C[C@@H]1C[C@H]2O[C@@H]2\C=C/C=C/C(=N\OCC(=O)N2CCC(N3CCCCC3)CC2)Cc2c(Cl)c(O)cc(O)c2C(=O)O1` ?
[A] > 3000 nM
